Data credit: paper PMC3312318

TARGET OF ASSAY: PICK1 S77D, rat (phosphomimic) (rat, UniProt Q9EP80 1-416, S77D)
Sequence (Q9EP80 whole entry S77D): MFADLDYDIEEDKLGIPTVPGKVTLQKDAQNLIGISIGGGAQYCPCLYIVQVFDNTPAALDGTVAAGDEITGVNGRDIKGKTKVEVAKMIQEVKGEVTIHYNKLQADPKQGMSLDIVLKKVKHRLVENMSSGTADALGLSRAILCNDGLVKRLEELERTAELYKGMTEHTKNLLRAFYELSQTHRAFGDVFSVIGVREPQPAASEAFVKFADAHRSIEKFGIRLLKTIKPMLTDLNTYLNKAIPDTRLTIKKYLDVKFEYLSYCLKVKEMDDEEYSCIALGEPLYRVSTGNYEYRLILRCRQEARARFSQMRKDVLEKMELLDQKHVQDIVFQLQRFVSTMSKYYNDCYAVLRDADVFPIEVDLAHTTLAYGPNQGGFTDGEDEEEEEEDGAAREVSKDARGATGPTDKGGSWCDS
METHOD DESCRIPTION: fluorescence polarisation
Quick reference: pKi of the listed items.
Conceptually, pKi converts a concentration in mol/L into minus its log10.

Requested field: pKi. Item: EVRQFTLRHWLKV [DAT C13 (13 C-terminal residues of the human dopamine transporter)]
5.96

Requested field: pKi. Item: NPQFVHPILQSAV [PKCα C13 (13 C-terminal residues of human protein kinase Cα)]
4.54

With those in mind, consider the next binder.
Requested field: pKi. Item: EGYNVYGIESVKI [GluA2 C13 (13 C-terminal residues of human GluA2)]
5.06
